Ref: patent US8835429B2

- target_or_system: mTOR (Homo sapiens, UniProt P42345)
- Sequence (P42345 1360-2549 limits assumed): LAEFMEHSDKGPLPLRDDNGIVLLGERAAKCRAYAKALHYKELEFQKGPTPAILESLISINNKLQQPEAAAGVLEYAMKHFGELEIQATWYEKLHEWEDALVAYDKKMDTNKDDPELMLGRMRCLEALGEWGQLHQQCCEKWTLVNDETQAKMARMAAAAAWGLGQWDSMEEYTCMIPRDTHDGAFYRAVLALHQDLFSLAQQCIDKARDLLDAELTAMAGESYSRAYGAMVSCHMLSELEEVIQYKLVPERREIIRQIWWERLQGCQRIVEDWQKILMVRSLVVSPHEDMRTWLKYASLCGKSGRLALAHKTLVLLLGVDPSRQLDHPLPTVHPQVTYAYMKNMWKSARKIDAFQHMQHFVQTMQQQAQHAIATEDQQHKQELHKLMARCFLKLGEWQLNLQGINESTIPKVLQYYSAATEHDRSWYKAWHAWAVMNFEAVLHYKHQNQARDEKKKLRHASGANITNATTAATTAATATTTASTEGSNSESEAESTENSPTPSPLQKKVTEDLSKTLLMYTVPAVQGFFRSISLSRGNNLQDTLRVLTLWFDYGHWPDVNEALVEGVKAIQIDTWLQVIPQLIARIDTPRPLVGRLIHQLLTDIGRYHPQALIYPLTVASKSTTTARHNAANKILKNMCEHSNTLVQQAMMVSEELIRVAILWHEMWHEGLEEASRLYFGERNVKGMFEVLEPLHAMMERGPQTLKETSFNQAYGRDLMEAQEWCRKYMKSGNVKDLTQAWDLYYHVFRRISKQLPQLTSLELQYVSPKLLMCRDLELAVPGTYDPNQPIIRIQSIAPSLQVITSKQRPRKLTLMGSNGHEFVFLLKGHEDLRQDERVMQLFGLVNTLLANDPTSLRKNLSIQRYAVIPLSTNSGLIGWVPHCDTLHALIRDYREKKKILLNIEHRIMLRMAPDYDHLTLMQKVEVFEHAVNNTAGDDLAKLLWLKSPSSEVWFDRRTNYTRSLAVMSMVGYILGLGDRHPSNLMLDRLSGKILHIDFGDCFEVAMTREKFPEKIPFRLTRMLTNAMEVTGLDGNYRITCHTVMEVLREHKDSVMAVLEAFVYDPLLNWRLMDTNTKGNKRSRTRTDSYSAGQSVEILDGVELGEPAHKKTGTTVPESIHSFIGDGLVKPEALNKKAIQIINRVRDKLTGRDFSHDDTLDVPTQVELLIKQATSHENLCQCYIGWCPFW
- protocol_description: mTOR enzyme assay (DELFIA, purified FLAG-TOR, His6-S6K substrate)
- Format: biochemical
- Design: FLAG
- stated_conditions: 100 μM ATP, 2 hours
readout_kind: IC50 (nM)
Your answer is read as nM, so omit the unit and give the number.

{"smiles_repr": "CC(C)N1CCN(C(=O)c2ccc(NC(=O)Nc3ccc(-c4nc(N5C[C@@H](C)O[C@@H](C)C5)cc(N5C6CCC5COC6)n4)cc3)cc2)CC1", "readout_kind": "IC50", "reported_result": 2.7}
{"smiles_repr": "CN1CCN(C(=O)c2ccc(NC(=O)Nc3ccc(-c4nc(N5C6CCC5COC6)cc(N5C6CCC5COC6)n4)cc3)cc2)CC1", "readout_kind": "IC50", "reported_result": 0.94}
{"smiles_repr": "O=C(Nc1ccc(-c2nc(-c3ccccc3)cc(N3CC4CCC(C3)O4)n2)cc1)NC1CC1", "readout_kind": "IC50", "reported_result": 19.5}
{"smiles_repr": "CN1CCN(c2ccc(NC(=O)Nc3ccc(-c4nc(N5C6CCC5COC6)cc(N5C[C@@H]6C[C@H]5CO6)n4)cc3)cc2)CC1", "readout_kind": "IC50", "reported_result": 9.75}
{"smiles_repr": "CN(C)Cc1cc(N2C3CCC2COC3)nc(-c2ccc(NC(=O)Nc3cccnc3)cc2)n1", "readout_kind": "IC50", "reported_result": 10.8}

I would be grateful if you could share the reported IC50 for CC(C)Oc1cc(N2CC3CCC(C2)O3)nc(-c2ccc(NC(=O)Nc3ccncc3)cc2)n1 . 1.35

Field request: IC50 | item: O=C(Nc1ccncc1)Nc1ccc(-c2nc(N3CC4CCC(C3)O4)cc(C(F)(F)F)n2)cc1 2.45

---

- target_or_system: PI3K-alpha (Homo sapiens, UniProt P42336)
- Sequence (P42336 whole entry, species assumed): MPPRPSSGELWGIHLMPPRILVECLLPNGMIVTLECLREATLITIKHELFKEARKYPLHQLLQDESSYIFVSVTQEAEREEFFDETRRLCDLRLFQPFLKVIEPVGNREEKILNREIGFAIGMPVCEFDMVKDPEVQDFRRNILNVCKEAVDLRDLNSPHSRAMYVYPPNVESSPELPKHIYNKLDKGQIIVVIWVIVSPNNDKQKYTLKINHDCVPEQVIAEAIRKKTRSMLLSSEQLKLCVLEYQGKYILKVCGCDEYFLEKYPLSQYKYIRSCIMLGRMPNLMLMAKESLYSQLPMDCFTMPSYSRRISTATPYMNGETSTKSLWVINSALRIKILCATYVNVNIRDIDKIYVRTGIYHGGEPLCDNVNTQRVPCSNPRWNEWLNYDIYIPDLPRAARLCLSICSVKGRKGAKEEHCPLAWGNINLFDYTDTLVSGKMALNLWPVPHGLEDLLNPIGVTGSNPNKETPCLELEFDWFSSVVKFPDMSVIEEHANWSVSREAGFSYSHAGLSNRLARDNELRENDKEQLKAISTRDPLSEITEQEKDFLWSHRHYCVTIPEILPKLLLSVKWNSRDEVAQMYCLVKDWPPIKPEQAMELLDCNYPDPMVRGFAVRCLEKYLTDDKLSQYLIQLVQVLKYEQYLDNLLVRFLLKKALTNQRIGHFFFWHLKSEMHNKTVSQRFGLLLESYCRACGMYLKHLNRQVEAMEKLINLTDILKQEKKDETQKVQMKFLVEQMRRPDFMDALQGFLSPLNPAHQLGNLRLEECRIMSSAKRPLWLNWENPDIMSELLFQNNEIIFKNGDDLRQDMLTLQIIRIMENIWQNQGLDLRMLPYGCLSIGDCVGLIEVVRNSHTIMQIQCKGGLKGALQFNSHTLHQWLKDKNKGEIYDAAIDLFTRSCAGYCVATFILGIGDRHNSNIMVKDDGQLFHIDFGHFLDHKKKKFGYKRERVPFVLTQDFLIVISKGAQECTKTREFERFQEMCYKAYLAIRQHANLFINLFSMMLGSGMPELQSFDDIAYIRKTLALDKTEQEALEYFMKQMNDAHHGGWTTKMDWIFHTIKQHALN
- Sequence (P27986 whole entry partner, species assumed): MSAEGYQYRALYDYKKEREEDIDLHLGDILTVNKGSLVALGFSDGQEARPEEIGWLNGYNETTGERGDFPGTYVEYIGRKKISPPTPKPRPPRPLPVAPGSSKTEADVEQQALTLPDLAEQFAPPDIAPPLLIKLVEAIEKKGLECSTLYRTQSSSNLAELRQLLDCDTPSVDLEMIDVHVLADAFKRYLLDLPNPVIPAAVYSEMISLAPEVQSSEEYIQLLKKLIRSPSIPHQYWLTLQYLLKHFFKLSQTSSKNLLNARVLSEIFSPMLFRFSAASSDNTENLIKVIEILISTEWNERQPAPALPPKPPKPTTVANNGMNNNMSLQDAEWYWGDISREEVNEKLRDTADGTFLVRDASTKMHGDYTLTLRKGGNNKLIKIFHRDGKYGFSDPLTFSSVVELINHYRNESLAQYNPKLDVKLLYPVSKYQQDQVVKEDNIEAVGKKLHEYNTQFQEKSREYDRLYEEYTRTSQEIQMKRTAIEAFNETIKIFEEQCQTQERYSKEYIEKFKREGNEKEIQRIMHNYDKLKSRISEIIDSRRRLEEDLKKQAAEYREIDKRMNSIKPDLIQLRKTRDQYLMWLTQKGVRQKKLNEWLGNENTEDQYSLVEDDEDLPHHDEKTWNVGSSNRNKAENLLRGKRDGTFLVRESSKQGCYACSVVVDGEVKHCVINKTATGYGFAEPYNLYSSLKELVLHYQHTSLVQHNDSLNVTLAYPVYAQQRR
- protocol_description: PI3K-alpha fluorescence polarization assay
- Format: biochemical
- stated_conditions: 20 μM PIP2, 25 μM ATP; read-out: PI3Kα IC50
Quick list: IC50 per entry.
API: value field is a number in µM; no unit string.

{"smiles_repr": "C[C@@H]1CN(c2cc(N3C4CCC3COC4)nc(-c3ccc(NC(=O)Nc4ccc(N5CCN(C)CC5)nc4)cc3)n2)C[C@H](C)O1", "IC50 / µM": 1.69}
{"smiles_repr": "CN1CCN(Cc2ccc(NC(=O)Nc3ccc(-c4nc(N5C6CCC5COC6)cc(N5C6CCC5COC6)n4)cc3)cc2)CC1", "IC50 / µM": 1.95}
{"smiles_repr": "CS(=O)(=O)CCNc1cc(N2C3CCC2COC3)nc(-c2ccc(NC(=O)Nc3ccncc3)cc2)n1", "IC50 / µM": 1.3}
{"smiles_repr": "CS(=O)(=O)Cc1cc(N2CC3CCC(C2)O3)nc(-c2ccc(NC(=O)Nc3ccncc3)cc2)n1", "IC50 / µM": 0.236}
{"smiles_repr": "CC(C)Nc1cc(N2C3CCC2COC3)nc(-c2ccc(NC(=O)Nc3ccc(CN4CCCC4)cc3)cc2)n1", "IC50 / µM": 1.09}
{"smiles_repr": "O=C(Nc1ccncc1)Nc1ccc(-c2nc(NC3CCOCC3)cc(N3C4CCC3COC4)n2)cc1", "IC50 / µM": 2.01}
{"smiles_repr": "CN(C)CCOc1ccc(NC(=O)Nc2ccc(-c3nc(C4CCOCC4)cc(N4C5CCC4COC5)n3)cc2)cc1", "IC50 / µM": 1.46}
{"smiles_repr": "CN(C)Cc1ccc(NC(=O)Nc2ccc(-c3nc(N4C5CCC4COC5)cc(N4C[C@@H]5C[C@H]4CO5)n3)cc2)cc1", "IC50 / µM": 1.24}
{"smiles_repr": "O=C(Nc1ccc(-c2cc(N3CC4CCC(C3)O4)nc(-c3ccc(NC(=O)NC4CC4)cc3)n2)cc1)NC1CC1", "IC50 / µM": 2.93}
{"smiles_repr": "O=C(Nc1ccncc1)Nc1ccc(-c2nc(C3CCOCC3)cc(N3C4CCC3COC4)n2)cc1", "IC50 / µM": 1.78}

Reported IC50, compound O=C(Nc1ccc(-c2nc(NC3CCOCC3)cc(N3C4CCC3COC4)n2)cc1)Nc1cccnc1 : ____ 2.68

Recorded IC50 for CCN(CC)c1cc(N2C3CCC2COC3)nc(-c2ccc(NC(=O)Nc3ccc(N4CCN(C)CC4)cc3)cc2)n1 , please? 2.91

---

- target_or_system: mTOR (Homo sapiens, UniProt P42345)
- protocol_description: mTOR enzyme assay (DELFIA, purified FLAG-TOR, His6-S6K substrate)
- Type: biochemical
- Parameters: FLAG
- stated_conditions: 100 μM ATP, 2 hours
Parameter: log10 IC50. Scope: all listed entries.
Recall that a logarithmic scale is used here: each number is log10 of IC50 in nM.

Some entries whose results are on file:
{"smiles_repr": "O=C(Nc1ccncc1)Nc1ccc(-c2nc(N3CC4CCC(C3)O4)cc(N3CC4CCC(C3)O4)n2)cc1", "target_or_system": "mTOR (Homo sapiens, UniProt P42345)", "log10 IC50": -0.25}
{"smiles_repr": "CN1CCN(c2ccc(NC(=O)Nc3ccc(-c4cc(N5CC6CCC(C5)O6)nc(N5CC6CCC(C5)O6)n4)cc3)cc2)CC1", "target_or_system": "mTOR (Homo sapiens, UniProt P42345)", "log10 IC50": 0.98}
{"smiles_repr": "O=C(Nc1ccc(-c2cc(N3CC4CCC(C3)O4)nc(-c3ccc(NC(=O)OCCO)cc3)n2)cc1)OCCO", "target_or_system": "mTOR (Homo sapiens, UniProt P42345)", "log10 IC50": 0.97}
{"smiles_repr": "C[C@@H]1CN(c2cc(N3C4CCC3COC4)nc(-c3ccc(NC(=O)Nc4ccncc4)cc3)n2)C[C@H](C)O1", "target_or_system": "mTOR (Homo sapiens, UniProt P42345)", "log10 IC50": 0.41}
{"smiles_repr": "O=C(Nc1ccncc1)Nc1ccc(-c2nc(N3C4CCC3COC4)cc(N3C4CCC3COC4)n2)cc1", "target_or_system": "mTOR (Homo sapiens, UniProt P42345)", "log10 IC50": -0.18}
{"smiles_repr": "C[C@@H]1COCCN1c1cc(N2C3CCC2COC3)nc(-c2ccc(NC(=O)Nc3ccc(OCCN(C)C)cc3)cc2)n1", "target_or_system": "mTOR (Homo sapiens, UniProt P42345)", "log10 IC50": 0.19}
{"smiles_repr": "CN1CCN(c2ccc(NC(=O)Nc3ccc(-c4nc(NCCS(C)(=O)=O)cc(N5C6CCC5COC6)n4)cc3)cc2)CC1", "target_or_system": "mTOR (Homo sapiens, UniProt P42345)", "log10 IC50": 1.16}
{"smiles_repr": "CN1CCN(Cc2ccc(NC(=O)Nc3ccc(-c4nc(N5C6CCC5COC6)cc(N5C6CCC5COC6)n4)cc3)cc2)CC1", "target_or_system": "mTOR (Homo sapiens, UniProt P42345)", "log10 IC50": 0.35}
{"smiles_repr": "CN(C)CCOc1ccc(NC(=O)Nc2ccc(-c3nc(C4CCOCC4)cc(N4C5CCC4COC5)n3)cc2)cc1", "target_or_system": "mTOR (Homo sapiens, UniProt P42345)", "log10 IC50": 0.06}
{"smiles_repr": "O=C(Nc1ccc(-c2nccc(N3CC4CCC(C3)O4)n2)cc1)OCCO", "target_or_system": "mTOR (Homo sapiens, UniProt P42345)", "log10 IC50": 2.22}

Which log10 IC50 is reported for this compound? CN(C)CCOc1ccc(NC(=O)Nc2ccc(-c3nc(NC4CCOCC4)cc(N4C5CCC4COC5)n3)cc2)cc1 0.88

// lookup log10 IC50 for O=C(Nc1ccc(-c2nc(-c3ccccc3)cc(N3CC4CCC(C3)O4)n2)cc1)OCCO 1.33

Query (compound): O=C(Nc1ccncc1)Nc1ccc(-c2nc(N3C4CCC3COC4)cc(N3C[C@H]4C[C@@H]3CO4)n2)cc1 ; field requested: log10 IC50 0.35

# query: log10 IC50 of entry O=C(Nc1ccc(-c2nc(N3C4CCC3COC4)cc(N3C4CCC3COC4)n2)cc1)Nc1cccnc1 -0.24

Requested read-out: log10 IC50. Entry: C[C@@H]1CN(c2cc(N3C4CCC3COC4)nc(-c3ccc(NC(=O)Nc4ccc(N5CCN(C)CC5)nc4)cc3)n2)C[C@H](C)O1 1.18

What does the data say about its log10 IC50? Entry: CCNC(=O)Nc1ccc(-c2nc(CS(C)(=O)=O)cc(N3CC4CCC(C3)O4)n2)cc1 0.76

// returns reported log10 IC50 for input O=C(Nc1ccc(CO)cc1)Nc1ccc(-c2nc(-c3ccccc3)cc(N3CC4CCC(C3)O4)n2)cc1 0.46
